Biological target: c-Src SH2
Experiment: SH2 binding enrichment of the phosphorylated peptide, bacterial display (enrichment ratio); higher = better substrate or ligand; peptides without Tyr show the background
REPORTED_METRIC: SH2 binding enrichment
Lab note: record the figure alone, no unit after it.

Recorded results for 2 sequences are shown here.
* HTLQLYRCREE [ALPK3_Y342] | 0.406
* IITDFYVDMKF [MPP4_Y567_V562I_YF] | 0.452

State its SH2 binding enrichment: GVLKEYGEKVL [CPS1_Y529_V531E]
0.427

State its SH2 binding enrichment: IFHLSYIHNCE [PDE6B_Y227_L228I_YF]
0.853

State its SH2 binding enrichment: NVQIVYKPVDL [MAPT_Y627_S622N]
0.58

State its SH2 binding enrichment: CGASGYSATST [CERT1_Y143_S138C]
0.556

State its SH2 binding enrichment: NKYVAYIESQG [KDM4B_Y34]
0.676

* * *

Biological target: Fyn (UniProt P06241)
Sequence (P06241 whole entry, looked up): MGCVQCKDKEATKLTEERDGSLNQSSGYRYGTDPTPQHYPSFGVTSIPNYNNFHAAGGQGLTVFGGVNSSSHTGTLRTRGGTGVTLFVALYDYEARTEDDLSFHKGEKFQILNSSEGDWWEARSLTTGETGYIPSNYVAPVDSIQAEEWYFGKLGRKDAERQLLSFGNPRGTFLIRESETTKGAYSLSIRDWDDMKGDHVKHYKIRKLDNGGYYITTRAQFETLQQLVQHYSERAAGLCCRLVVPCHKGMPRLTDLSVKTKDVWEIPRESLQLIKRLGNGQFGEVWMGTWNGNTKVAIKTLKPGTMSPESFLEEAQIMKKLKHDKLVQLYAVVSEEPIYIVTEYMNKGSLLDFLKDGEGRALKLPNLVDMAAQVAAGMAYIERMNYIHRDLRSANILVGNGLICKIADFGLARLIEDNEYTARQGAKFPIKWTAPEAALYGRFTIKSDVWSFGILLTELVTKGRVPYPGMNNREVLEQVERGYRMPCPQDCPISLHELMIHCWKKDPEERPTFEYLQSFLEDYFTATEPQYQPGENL
Assay: phosphorylation enrichment, bacterial display (enrichment ratio); higher = better substrate or ligand; peptides without Tyr show the background
phosphorylation enrichment below 0.5 gives not fulfilled; phosphorylation enrichment at or above it gives fulfilled.

Reference set (2 entries):
- STDDGCIDLQF [TMEM230_Y29_Y29C]: fulfilled
- YSTDYYRVGGH [NTRK2_Y707]: fulfilled

Could you verify whether the entry QVMDGYPMPIG [MMP14_Y353] shows phosphorylation enrichment of no less than 0.5?
fulfilled

Could you verify whether the entry EVVGRYSVHFA [MLH1_Y183_N187Y_YF] shows phosphorylation enrichment of no less than 0.5?
fulfilled

Could you verify whether the entry QLRPGYFPIPV [BAG3_Y93_I94F] shows phosphorylation enrichment of no less than 0.5?
fulfilled

* * *

Known SH2 binding enrichment of a selection of sequences
Biological target: SHP2-C SH2
Experiment: SH2 binding enrichment of the phosphorylated peptide, bacterial display (enrichment ratio); higher = better substrate or ligand; peptides without Tyr show the background
Lab note: record the figure alone, no unit after it.

* FGSLLYKFAFK [FANCD2_Y458_YF] | 0.732

For SHP2-C SH2, give SH2 binding enrichment of the listed sequence: SKKVRYVVSKA [BARD1_Y156]
1.17

For SHP2-C SH2, give SH2 binding enrichment of the listed sequence: HNLDYYKETTN [FGFR3_Y648_K650E]
0.874

For SHP2-C SH2, give SH2 binding enrichment of the listed sequence: PGQRVYVVAES [SHH_Y316_R321S]
0.892

* * *

Target: FGFR3 (UniProt P22607)
Sequence (P22607 whole entry, looked up): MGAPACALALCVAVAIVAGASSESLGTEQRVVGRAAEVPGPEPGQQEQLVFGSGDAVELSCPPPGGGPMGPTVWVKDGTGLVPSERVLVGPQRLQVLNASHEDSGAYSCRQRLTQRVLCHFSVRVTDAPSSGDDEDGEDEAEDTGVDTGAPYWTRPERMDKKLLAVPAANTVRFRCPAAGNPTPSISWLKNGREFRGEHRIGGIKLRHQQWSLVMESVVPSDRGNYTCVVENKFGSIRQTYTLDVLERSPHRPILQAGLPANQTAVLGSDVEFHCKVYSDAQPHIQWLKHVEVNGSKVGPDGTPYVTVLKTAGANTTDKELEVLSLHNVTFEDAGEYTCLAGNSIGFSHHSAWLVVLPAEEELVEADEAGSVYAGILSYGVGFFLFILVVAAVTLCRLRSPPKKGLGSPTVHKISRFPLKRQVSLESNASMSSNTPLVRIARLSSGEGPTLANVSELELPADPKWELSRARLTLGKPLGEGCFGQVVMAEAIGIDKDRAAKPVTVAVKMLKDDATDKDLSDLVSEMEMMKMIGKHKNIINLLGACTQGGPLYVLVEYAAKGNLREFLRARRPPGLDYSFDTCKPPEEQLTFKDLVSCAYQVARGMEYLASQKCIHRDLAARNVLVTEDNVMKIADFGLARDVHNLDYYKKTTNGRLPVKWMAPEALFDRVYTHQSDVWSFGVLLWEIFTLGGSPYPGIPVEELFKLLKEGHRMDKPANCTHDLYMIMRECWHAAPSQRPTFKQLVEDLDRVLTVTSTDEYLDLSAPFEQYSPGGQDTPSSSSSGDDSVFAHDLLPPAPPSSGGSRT
Test: phosphorylation enrichment, bacterial display (enrichment ratio); higher = better substrate or ligand; peptides without Tyr show the background
REPORTED_METRIC: phosphorylation enrichment
Lab note: record the figure alone, no unit after it.

Recorded results for 5 sequences are shown here.
- DDHFTYSRYPW [LY75_Y888]: 0.969
- SFPREYGSQEG [RBM10_Y48_YF]: 0.567
- KFDLMYAKLAF [TUBA1A_Y399_R402L]: 0.676
- NTFEKYWPFFQ [GATM_Y103_YF]: 1.08
- RVQQIYSDSDL [MIB1_Y376]: 0.852

State its phosphorylation enrichment: GLTSTYVGIRK [ROBO1_Y932_A933V]
0.489

State its phosphorylation enrichment: SLVGCYNLTFM [HS6ST3_Y323]
0.95
